Consider the following molecules; for each one, report its IC50.
Target: SOS1 (Homo sapiens (Human))
Sequence (Q07889 564-1049): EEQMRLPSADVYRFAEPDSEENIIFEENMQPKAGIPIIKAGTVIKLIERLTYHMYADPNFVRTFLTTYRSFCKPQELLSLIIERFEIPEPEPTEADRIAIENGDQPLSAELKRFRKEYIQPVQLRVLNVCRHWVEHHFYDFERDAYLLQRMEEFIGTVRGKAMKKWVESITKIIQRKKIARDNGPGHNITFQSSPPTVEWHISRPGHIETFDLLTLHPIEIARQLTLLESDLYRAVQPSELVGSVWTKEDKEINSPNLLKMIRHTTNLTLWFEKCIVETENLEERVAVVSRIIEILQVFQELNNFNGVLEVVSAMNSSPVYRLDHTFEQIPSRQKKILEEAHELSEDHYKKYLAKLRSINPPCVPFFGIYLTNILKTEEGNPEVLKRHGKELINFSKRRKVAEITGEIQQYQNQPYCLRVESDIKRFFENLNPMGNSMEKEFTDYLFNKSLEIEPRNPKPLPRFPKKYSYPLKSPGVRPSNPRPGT
Test: Ras-SOS interaction assay (HTRF), K-Ras G13D utilized
Assay type: binding
Settings: K-Ras G13D, read-out: SOS1 IC50

Completed entries (count: 3):
CC(C)N1CCN(c2cc3c4ncnc3n(c2=O)CCCCCN2CCC(CC2)CCC(F)(F)c2cccc(c2)[C@@H](C)N4)CC1 :: < 100 nM
C[C@H]1Nc2ncnc3c2cc(C2(C#N)CC2)c(=O)n3CC(=O)N(C)CCCCN2CCC(CC2(C)C)C(F)(F)c2cccc1c2 (stereo partly drawn) :: < 100 nM
Cc1nc2c3cc(C4CCN(C(C)C)CC4)c(=O)n(c3n1)CCCC/C=C\CN1CCC(CC1)C(F)(F)c1cccc(c1)[C@@H](C)N2 :: < 100 nM

Hey, can you go through the list below and give me IC50 for every item?
1. Cc1nc2c3cc(C4CCS(=O)(=O)CC4)c(=O)n(c3n1)CCCCCCCN1CCC(CC1)C(F)(F)c1cccc(c1)[C@@H](C)N2 [Compound 7]
2. Cc1nnc2c3cc(N4CCOCC4)cc(c13)OCCCCCCN1CCC(CC1)C(F)(F)c1cccc(c1)[C@@H](C)N2

1. 100 to 5000 nM
2. < 100 nM

Hey, can you go through the list below and give me IC50 for every item?
1. COc1cc2nc(C)nc3c2cc1OCCOCCOCCOCCOCCNCc1ccc(F)cc1C1=CC=C(S1)C(C)N3 (stereo not drawn)
2. CC(C)N1CCN(c2cc3c4ncnc3n(c2=O)CC(=O)N(C)CCCCN2CCC(CC2)C(F)(F)c2cccc(c2)[C@@H](C)N4)CC1
3. Cc1nc2c3cc(C4(C#N)CC4)c(=O)n(c3n1)CCCCCCOCC(F)(F)c1cccc(c1F)[C@@H](C)N2
4. Cc1nc2c3cc(C4(C#N)CC4)c(=O)n(c3n1)CCC/C=C\CN1CCC(CC1)C(F)(F)c1cccc(c1F)[C@@H](C)N2
5. C[C@H]1Nc2ncnc3c2cc(N2CCS(=O)(=O)CC2)c(=O)n3CCCCCCCN2CCC(CC2)C(F)(F)c2cccc1c2
6. C[C@H]1Nc2nnc(c3c2cc(C2CCS(=O)(=O)CC2)c(=O)n3C)OCCCCN2CCC(CC2)C(F)(F)c2cccc1c2F
7. Cc1nc2c3cc(C4(C#N)CC4)c(=O)n(c3n1)CC/C=C\CN1CCC(CC1)C(F)(F)c1cccc(c1)[C@@H](C)N2

1. < 100 nM
2. < 100 nM
3. 100 to 5000 nM
4. < 100 nM
5. < 100 nM
6. 100 to 5000 nM
7. 100 to 5000 nM

Hey, can you go through the list below and give me IC50 for every item?
1. C[C@H]1Nc2ncnc3c2cc(C2CCS(=O)(=O)CC2)c(=O)n3CCCNC(=O)CCN2CCC(CC2)C(F)(F)c2cccc1c2
2. C[C@H]1Nc2ncnc3c2cc(C2CCS(=O)(=O)CC2)c(=O)n3CCCCCN2CCC(CC2)CCC(F)(F)c2cccc1c2F
3. Cc1nc2c3cc(C4(C#N)CC4)c(=O)n(c3n1)CCC/C=C\CN1CCC(CC1)C(F)(F)c1cccc(c1)[C@@H](C)N2

< 100 nM
< 100 nM
< 100 nM

* * *

Test: Mouse oral exposure (% F)
Format: in vivo
Conditions: plasma, female CD-1 mice, 10 mg/kg oral vs 2 mg/kg IV, single dosing
reported-property: bioavailability

Cc1nc2c3cc(C4CCN(C(C)C)CC4)c(=O)n(c3n1)CCCC/C=C\CN1CCC(CC1)C(F)(F)c1cccc(c1)[C@@H](C)N2 :: ≥ 4%

What value of bioavailability has been recorded for this entry: `C[C@H]1Nc2ncnc3c2cc(C2CCS(=O)(=O)CC2)c(=O)n3CCCOCCCCN2CC(C2)CC(F)(F)c2cccc1c2`
≥ 4%
